# assay-system: UniProt A6N857
# assay-summary: Inhibition of LdGSK-3 with Kinase Glo
# Format: biochemical
readout: pIC50
The quantity pIC50 is defined as the negative base-10 logarithm of the molar concentration.

Inquiry: Indicate the recorded pIC50 value for this molecule: O=c1sn(-c2cccc3ccccc23)c(=O)n1Cc1ccccc1 [Compound 2, tideglusib]
Reply text: 6.49

* * *

% inhibition @ 10µM (initial screening on LdGSK3) by entry:
# assay-system: LdGSK-3 (Leishmania donovani)
# assay-summary: Inhibition of LdGSK-3 with Kinase Glo
# Type: biochemical
# cond: Table S2; 10 µM
Unit % implied. Number only.

Inquiry: Indicate the recorded % inhibition @ 10µM (initial screening on LdGSK3) value for this molecule: Nc1nc(-c2ccccn2)nc(-n2nc(-c3cccc(C(F)(F)F)c3)cc2N)n1.O=C(O)C(F)(F)F
Reply text: 4.75

* * *

# assay-system: LdGSK-3 (Leishmania donovani)
# assay-summary: Inhibition of LdGSK-3 with Kinase Glo
# Assay type: biochemical
# cond: Table 1; read-out: LdGSK-3 IC50
readout: pIC50
The quantity pIC50 is defined as the negative base-10 logarithm of the molar concentration.

Inquiry: Indicate the recorded pIC50 value for this molecule: O=C1Nc2ccc(S(=O)(=O)O)cc2C1=C1Nc2ccccc2C1=NO [Indirubin-3’-monoxime-5-sulphonic acid, reference compound]
Reply text: 5.62

* * *

% inhibition @ 10µM (initial screening on LdGSK3) by entry:
# assay-system: LdGSK-3 (Leishmania donovani, UniProt A6N857)
# Sequence (A6N857 entry or part of it): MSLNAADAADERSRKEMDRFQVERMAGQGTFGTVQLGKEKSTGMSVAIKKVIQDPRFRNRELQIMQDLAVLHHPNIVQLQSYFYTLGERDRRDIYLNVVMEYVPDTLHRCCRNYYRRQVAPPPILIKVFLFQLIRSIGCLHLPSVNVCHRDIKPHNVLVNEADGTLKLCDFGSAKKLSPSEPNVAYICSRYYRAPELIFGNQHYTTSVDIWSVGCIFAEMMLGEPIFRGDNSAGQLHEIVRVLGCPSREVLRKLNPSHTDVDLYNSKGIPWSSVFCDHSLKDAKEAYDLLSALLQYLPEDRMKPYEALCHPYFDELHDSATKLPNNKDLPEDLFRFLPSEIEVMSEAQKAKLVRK
# assay-summary: Inhibition of LdGSK-3 with Kinase Glo
# Format: biochemical
# cond: Table S2; 10 µM
Unit % implied. Number only.

Recorded % inhibition @ 10µM (initial screening on LdGSK3), per entry:
CCOc1ccccc1C(=O)Nc1nnc(-c2ccc3c(c2)OCO3)s1 [Compound 191]    12.20
Oc1c(-c2n[nH]c(Cc3ccc(Cl)cc3)n2)ncc2cccnc12 [Compound 52]    5.05

Inquiry: Indicate the recorded % inhibition @ 10µM (initial screening on LdGSK3) value for this molecule: Cc1ccccc1CNc1cc(C2CC2)nc(-c2nccn2C)n1.O=C(O)C(F)(F)F [Compound 49]
Reply text: 5.60

Inquiry: Indicate the recorded % inhibition @ 10µM (initial screening on LdGSK3) value for this molecule: O=C(c1ccc(O)c(Cl)c1)N1CCN(c2cnccn2)CC1 [Compound 96]
Reply text: 1.65

Inquiry: Indicate the recorded % inhibition @ 10µM (initial screening on LdGSK3) value for this molecule: COc1ccc(Nc2nccc(N(C)c3n[nH]c4c(F)cccc34)n2)cc1S(C)(=O)=O [Compound 95]
Reply text: 90.25

* * *

pEC50 by entry:
# System: L. pifanoi axenic amastigotes
# assay-summary: Leishmanicidal assay on axenic amastigotes (inhibition of MTT reduction)
# Assay type: cell-based, Leishmania pifanoi
# cond: Table S1; 96 h; read-out: L. pifanoi amast. ax EC50
# Method: Leishmania parasites were resuspended with the corresponding drug concentration at 2 × 10^6 parasites/mL (final concentration) in their respective growth media in 96 microwell plates (200 µL/well). The parasites were allowed to growth for 72 h at 26 °C for promastigotes and 96 h at 32 °C for axenic amastigotes. Afterwards, inhibition of proliferation was measured by the inhibition of MTT reduction by the parasites. […] Afterwards, the plate was read at 595 nm in a BioRad Microplate-reader, model 680. […]
The quantity pEC50 is defined as the negative base-10 logarithm of the molar concentration.

Recorded pEC50, per entry:
O=C(CCl)c1ccc(Cl)cc1 [Compound 7]    6.30
O=C(CCl)c1ccc(Br)s1 [Compound 6]    5.77
CC(=O)C1=C(c2c[nH]c3ccccc23)C(=O)NC1=O [Compound 16]    5.60

Attention now turns to another entry.
Inquiry: Indicate the recorded pEC50 value for this compound: COc1ccc(-n2cnc3cc(C(=O)CBr)ccc32)cc1 [Compound 17]
Reply text: 5.35

* * *

# assay-system: hGSK-3β (Homo sapiens, UniProt P49841)
# Sequence (P49841 whole entry): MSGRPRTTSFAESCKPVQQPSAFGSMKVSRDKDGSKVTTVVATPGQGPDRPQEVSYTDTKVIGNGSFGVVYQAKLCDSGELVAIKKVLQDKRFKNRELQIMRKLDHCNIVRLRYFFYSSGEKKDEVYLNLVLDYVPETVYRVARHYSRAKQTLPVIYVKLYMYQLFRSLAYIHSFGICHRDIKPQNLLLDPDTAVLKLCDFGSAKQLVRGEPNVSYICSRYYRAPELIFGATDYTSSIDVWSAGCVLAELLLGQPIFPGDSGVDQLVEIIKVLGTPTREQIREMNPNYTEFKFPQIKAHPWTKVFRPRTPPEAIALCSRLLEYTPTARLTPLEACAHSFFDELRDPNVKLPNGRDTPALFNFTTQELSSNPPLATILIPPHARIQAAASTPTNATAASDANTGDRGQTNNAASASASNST
# assay-summary: hGSK-3β inhibition
# Assay type: biochemical
# cond: Table S1; reference not given
readout: pIC50
The quantity pIC50 is defined as the negative base-10 logarithm of the molar concentration.

COc1cccc(CC(=O)Nc2nc3ccc(OC)cc3s2)c1    5.13
COc1ccc(CNC(=O)Nc2nc(C)c(C(=O)C(Br)Br)s2)cc1    5.21

Inquiry: With hGSK-3β (Homo sapiens, UniProt P49841) as the test system, provide measured pIC50 for this compound: COc1ccc(CNC(=O)Nc2nc(C)c(C(=O)CBr)s2)cc1
Reply text: 5.01

Inquiry: With hGSK-3β (Homo sapiens, UniProt P49841) as the test system, provide measured pIC50 for this compound: CCOC(=O)c1sc(NC(=O)CCc2cc(OC)c(OC)c(OC)c2)nc1C
Reply text: 5.15

Inquiry: With hGSK-3β (Homo sapiens, UniProt P49841) as the test system, provide measured pIC50 for this compound: O=C(Cc1cccc(Cl)c1)Nc1nc2ccc(C(F)(F)F)cc2s1
Reply text: 5.01

Inquiry: With hGSK-3β (Homo sapiens, UniProt P49841) as the test system, provide measured pIC50 for this compound: CCOC(=O)c1sc(NC(=O)CCc2cccc(Cl)c2)nc1C
Reply text: 5.14

* * *

# assay-system: LdGSK-3 (Leishmania donovani, UniProt A6N857)
# assay-summary: Inhibition of LdGSK-3 with Kinase Glo
# Assay type: biochemical
# cond: Table S2; 10 µM
% inhibition @ 10µM (initial screening on LdGSK3) by entry:
Unit % implied. Number only.

Recorded % inhibition @ 10µM (initial screening on LdGSK3), per entry:
O=C(Nc1nc(-c2ccccn2)cs1)C1CCc2ccccc2C1 (stereo not drawn) [Compound 54]    0.10
O=C(Nc1ccc(C(F)(F)F)cc1)Nc1cccc([N+](=O)[O-])c1 [Compound 185]    1.70
Cc1ccc(NC(=O)c2ccc([N+](=O)[O-])s2)cc1S(=O)(=O)N1CCOCC1 [Compound 97]    6.15
COc1cccc(C(=O)[C@H]2C[C@@H]2CN(Cc2ccccn2)Cc2ccccn2)c1 [Compound 153]    -5.50
CC(C)(C)Nc1nc(-c2ccccn2)nc2ccccc12 [Compound 192]    -2.40
O=C(CCc1ccc(-c2ccccc2)o1)N1CCN(c2ccc(O)cc2)CC1 [Compound 178]    28.65
CCS(=O)(=O)Nc1ccc(C2=NN(C(=O)c3cccs3)C(c3ccccc3OC)C2)cc1 (stereo not drawn) [Compound 108]    5.15
c1ccc(-c2nc(NCc3ccco3)c3ccccc3n2)nc1 [Compound 87]    -0.05
O=C(CCCNC(=O)c1ccc(Cl)cc1)Nc1nc(-c2ccccn2)cs1 [Compound 98]    8.50
CCCc1cc(N)nc(-c2cc(CCC)cc(N)n2)c1 [Compound 33]    -0.35

Inquiry: Indicate the recorded % inhibition @ 10µM (initial screening on LdGSK3) value for this compound: CCc1nn(-c2ncc(F)c(NC(C)C)n2)c(N)c1C1CCCCC1 [Compound 41]
Reply text: 7.05

Inquiry: Indicate the recorded % inhibition @ 10µM (initial screening on LdGSK3) value for this compound: CC(c1cc(Cl)cc(Cl)c1)N(C)c1ncc2c(N)nc(N)nc2n1 (stereo not drawn) [Compound 75]
Reply text: 10.05

Inquiry: Indicate the recorded % inhibition @ 10µM (initial screening on LdGSK3) value for this compound: O=C(Nc1cccc(S(=O)(=O)Nc2ccc(Br)cc2)c1)c1ccc([N+](=O)[O-])s1 [Compound 133]
Reply text: 15.75

* * *

# assay-system: LdGSK-3 (Leishmania donovani, UniProt A6N857)
# assay-summary: Inhibition of LdGSK-3 with Kinase Glo
# Format: biochemical
# cond: Table S2; 10 µM
% inhibition @ 10µM (initial screening on LdGSK3) by entry:
Unit % implied. Number only.

Recorded % inhibition @ 10µM (initial screening on LdGSK3), per entry:
COc1ccc2ncc(Cl)c(CCN3CC[C@H](NCc4cc5c(cn4)OCS5)[C@@H](O)C3)c2n1 [Compound 183]    14.80
CN(Cc1nc2cccc(C(=O)N3CCN(Cc4ccccc4)CC3)c2[nH]1)C1CCCc2cccnc21.O=C(O)C(F)(F)F (stereo not shown) [Compound 91]    12.65

Inquiry: With LdGSK-3 (Leishmania donovani, UniProt A6N857) as the test system, provide measured % inhibition @ 10µM (initial screening on LdGSK3) for this compound: Cc1nc2c(-c3ncn[nH]3)cc(NC(=O)Cc3ccccc3)cn2c1C.O=CO [Compound 37]
Reply text: 5.90

Inquiry: With LdGSK-3 (Leishmania donovani, UniProt A6N857) as the test system, provide measured % inhibition @ 10µM (initial screening on LdGSK3) for this compound: O=C(CN(Cc1ccccn1)Cc1ccccn1)NCc1ccc2c(c1)OCO2.O=C(O)C(F)(F)F [Compound 193]
Reply text: 2.65

* * *

# assay-system: UniProt:A6N857
# assay-summary: Inhibition of LdGSK-3 with Kinase Glo
# Assay type: biochemical
# cond: Table S2; 10 µM
Label TRUE when % inhibition @ 10µM (initial screening on LdGSK3) is at or above 10%; anything below gets FALSE.

COc1ccc2ncc(=O)n(CCN3CCC(NCc4ccc(-c5cccs5)cc4)CC3)c2n1    TRUE

Inquiry: Determine whether measured % inhibition @ 10µM (initial screening on LdGSK3) meets or exceeds 10% for N#Cc1cccc(Nc2nccc(N3CCC(NS(=O)(=O)c4cccc(C#N)c4)CC3)n2)c1.O=C(O)C(F)(F)F
Reply text: TRUE

Inquiry: Determine whether measured % inhibition @ 10µM (initial screening on LdGSK3) meets or exceeds 10% for Cc1ccc(NC(C)C(=O)Nc2ccc(C#N)cc2)cc1S(=O)(=O)N1CCCCC1 (stereo not shown)
Reply text: FALSE

Inquiry: Determine whether measured % inhibition @ 10µM (initial screening on LdGSK3) meets or exceeds 10% for Cc1cc(C)cc(NS(=O)(=O)c2cc(-c3cc(C)[nH]n3)ccc2C)c1
Reply text: FALSE

Inquiry: Determine whether measured % inhibition @ 10µM (initial screening on LdGSK3) meets or exceeds 10% for O=C(CN1CCC2(O)CCCCC2C1c1ccc2c(c1)OCO2)Nc1ccc(Cl)cc1Cl (stereo not shown)
Reply text: FALSE

Inquiry: Determine whether measured % inhibition @ 10µM (initial screening on LdGSK3) meets or exceeds 10% for Oc1c(-c2n[nH]c(CCc3ccccc3)n2)ncc2cccnc12
Reply text: FALSE

These measurements were taken from paper PMC6882465.
